# assayedTarget: T1, GIP receptor (UniProt P48546 22-466, limits assumed)
# T1 sequence (looked up): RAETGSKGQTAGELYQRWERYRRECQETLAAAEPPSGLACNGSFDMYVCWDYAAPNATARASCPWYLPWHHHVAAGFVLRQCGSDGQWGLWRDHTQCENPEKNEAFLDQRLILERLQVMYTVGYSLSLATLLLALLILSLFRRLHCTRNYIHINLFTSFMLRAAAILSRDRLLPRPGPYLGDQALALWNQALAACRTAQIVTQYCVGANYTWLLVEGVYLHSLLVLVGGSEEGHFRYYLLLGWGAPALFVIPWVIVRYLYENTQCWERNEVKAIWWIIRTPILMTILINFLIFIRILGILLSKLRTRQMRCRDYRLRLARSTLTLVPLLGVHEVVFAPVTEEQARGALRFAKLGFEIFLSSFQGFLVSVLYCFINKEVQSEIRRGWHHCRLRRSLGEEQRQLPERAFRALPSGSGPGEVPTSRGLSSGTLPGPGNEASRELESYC
# protocolDetails: cell-based or functional assay
*1 amine or outer side, *2 acyl side, *3 side chain or, on linkers, in order; H or OH if unused. Where no end group is shown, it is not given here. Side-chain parts run from the residue outwards. [ ]: non-standard residue; d: D form. The star is where a group is joined. Isobutyryl(2-imidazol-4-yl) = CC(C)(C(=O)*)c1c[nH]cn1; γGlu = O=C(O)[C@H](CCC(=O)[*:2])N[*:1]; Palmitoyl = CCCCCCCCCCCCCCCC(=O)*; Aib = CC(C)(N)C(=O)O
For each record, check the reported EC50 (cAMP reporter): if it is below 0.2 nM write fulfilled, else write not fulfilled.

q: Hi there! Is EC50 (cAMP reporter) for H[dS]QGTFTSDKSKYLDERRA[Aib]EFVQWLLDT-NH2 (not fully specified (residue 10)) [Analog No. 36: dSer2, K10acyl, E16, Aib20, E21, L27, D28 (SEQ ID NO: 30)] below 0.2 nM, do you know?
a: not fulfilled

q: Strictly below 0.2 nM: is that where EC50 (cAMP reporter) of H[Aib]QGTFTSDKSKYLD[Aib]RAAQDFVQWLKDGGPSSGAPPPS-NH2 (not fully specified (residue 10)) [Analog No. 54: Aib2, K10acyl, Aib16, A18, K27, D28, G29 + CEX (SEQ ID NO: 36)] sits?
a: fulfilled

q: Does this binder meet the criterion EC50 (cAMP reporter) < 0.2 nM? H[Aib]QGTFTSDKSKYLD[Aib]RAAQDFVQWLMDGGPSSGAPPPS-NH2 (not fully specified (residue 10)) [Analog No. 49: Aib2, K10acyl, Aib16, A10, D28, G29 + CEX (SEQ ID NO: 33)]
a: not fulfilled

q: Please check: EC50 (cAMP reporter) for H[Aib]EGTFTSDK([γGlu-C16])SKYLDERRA[Aib]EFVQWLLDGGPSSGAPPPS-NH2 [Analog No. 62: Aib2, E3, K10acyl, E16, Aib20, E21, L27, D28, G29 + CEX (SEQ ID NO: 38)] , strictly under 0.2 nM or not?
a: fulfilled

q: Problem: For the binder H[Aib]EGTFTSDKSKYLDERRA[Aib]EFVQWLLDT-NH2 (not fully specified (residue 10)) [Analog No. 64: Aib2, E3, K10acyl, E16, Aib20, E21, L27, D28 (SEQ ID NO: 40)] , is EC50 (cAMP reporter) under 0.2 nM?
a: fulfilled

q: Does this binder meet the criterion EC50 (cAMP reporter) < 0.2 nM? H[Aib]QGTFTSDKSKYLDERAAQDFVQWLLDGRG-NH2 (not fully specified (residue 10)) [Analog No. 34: Aib2, K10acyl, E16, A18, L27, D28, GRG29-31 (SEQ ID NO: 29)]
a: fulfilled

q: I wonder whether H[Aib]EGTFTSDK(Palmitoyl)SKYLDERRA[Aib]DFVQWLLDGGPSSGAPPPS-NH2 [Analog No. 65: Aib2, E3, K10acyl, E16, Aib20, L27, D28, G29 + CEX (SEQ ID NO: 41)] has EC50 (cAMP reporter) below 0.2 nM. Can you tell?
a: fulfilled

q: Decide: EC50 (cAMP reporter) of [Isobutyryl(2-imidazol-4-yl)][dS]QGTFTSDKSKYLDERAAQDFVQWLLDT-NH2 (not fully specified (residue 10)) [Analog No. 44: DMIA1, dSer2, K10acyl, E16, A18, L27, D28 (SEQ ID NO: 32)] strictly below 0.2 nM?
a: fulfilled
